Values from BindingDB's records for doi:10.1021/ml400486k

method.notes: Inhibition of Bacillus anthracis lethal toxin-induced mouse RAW264.7 cell death preincubated for 1 hr followed by lethal toxin challenge measured after 4 hrs
Task for the reader: assign each of the following molecules its reported IC50.

Parameter requested: IC50. Apply to each item below.
1. Cc1cccc(C)c1NC(=O)N/N=C/c1ccc(C(F)(F)F)cc1
2. C/C(=N\NC(=O)Nc1c(C)cccc1C)c1ccc(Br)cc1
3. CCc1cccc(CC)c1NC(=O)N/N=C/c1ccc(Br)cc1

2600 nM
2500 nM
> 12500 nM

----------
Task for the reader: assign each of the following compounds its reported IC50.
method.notes: Inhibition of Bacillus anthracis lethal toxin-induced mouse RAW264.7 cell death preincubated for 1 hr followed by lethal toxin challenge measured after 4 hrs

1) Cc1cccc(C)c1NC(=O)N/N=C/c1ccc(Br)cc1F 400 nM
2) Cc1cccc(C)c1NC(=O)N/N=C/c1ccccc1F 8200 nM
3) Cc1cccc(C)c1NC(=O)N/N=C/c1ccc(N=[N+]=[N-])cc1 2800 nM
4) Cc1cccc(C)c1NC(=O)N/N=C/c1ccc(F)cc1 7000 nM
5) Cc1cccc(C)c1/N=C(\N)N/N=C/c1ccc(Br)cc1 13800 nM
6) Cc1cccc(C)c1NC(=O)N/N=C/c1ccc(Br)s1 1700 nM
7) Cc1cccc(C)c1NC(=O)N/N=C/c1ccc(C#N)cc1 2500 nM
8) Cc1cccc(C)c1NC(=O)N/N=C/c1c(F)c(F)c(N=[N+]=[N-])c(F)c1F > 25000 nM

Alright, here's another compound for you.
Supply reported IC50 belonging to this compound: Cc1ccc(/C=N/NC(=O)Nc2c(C)cccc2C)cc1
2900 nM

----------
method.notes: Inhibition of Bacillus anthracis lethal toxin-induced mouse RAW264.7 cell death preincubated for 1 hr followed by lethal toxin challenge measured after 4 hrs
Task for the reader: assign each of the following molecules its reported pIC50.
One number for each entry, as −log10 of the molar value.

See these solved cases before continuing.
1) C#Cc1ccc(/C=N/NC(=O)Nc2c(C)cccc2C)cc1 5.77
2) Cc1cccc(C)c1NC(=O)N/N=C/c1ccc(Br)cc1 5.85
3) Cc1cccc(C)c1NC(=O)N/N=C/c1ccc(N=[N+]=[N-])cc1F 5.66
4) Cc1cccc(C)c1NC(=S)N/N=C/c1ccc(Br)cc1 5.82
5) Cc1cc(C)c(NC(=O)N/N=C/c2ccc(Br)cc2)c(C)c1 4.90

Parameter requested: pIC50. Apply to each item below.
1. Cc1cccc(C)c1NC(=O)N/N=C/c1ccc(Br)c(Cl)c1
2. CCc1ccc(/C=N/NC(=O)Nc2c(C)cccc2C)cc1
3. Cc1cccc(C)c1NC(=O)N/N=C/c1ccc(Br)c(F)c1
4. Cc1cccc(C)c1NC(=O)N(C)/N=C/c1ccc(Br)cc1
5. Cc1cccc(C)c1NC(=O)N/N=C/c1ccc(Br)cc1Cl
6. Cc1ccc(/C=N/NC(=O)Nc2c(C)cccc2C)cc1F
7. Cc1cccc(C)c1NC(=O)N/N=C/c1c(F)cc(Br)cc1F

[5.47, 5.52, 5.82, 5.70, 5.49, 5.74, 5.40]

----------
method.notes: Inhibition of Bacillus anthracis lethal toxin-induced mouse RAW264.7 cell death preincubated for 1 hr followed by lethal toxin challenge measured after 4 hrs
Entries whose IC50 is below 2 µM take Fulfilled; entries at or above 2 µM take Not fulfilled.

1) Cc1cccc(C)c1NC(=O)N/N=C/c1cccs1 Not fulfilled
2) COc1ccc(/C=N/NC(=O)Nc2c(C)cccc2C)cc1 Not fulfilled
3) Cc1cccc(C)c1NC(=O)N/N=C/c1ccc(Br)o1 Not fulfilled
4) C#CCN(/N=C/c1ccc(Br)cc1)C(=O)Nc1c(C)cccc1C Not fulfilled
5) Cc1cccc(C)c1NC(=O)N/N=C/c1ccc(C(C)C)cc1 Not fulfilled

Is it true that IC50 reported for Cc1cccc(C)c1NC(=O)N/N=C/c1ccc(F)cc1F is less than 2 µM?
Not fulfilled

Is it true that IC50 reported for Cc1cccc(C)c1NC(=O)N/N=C/c1ccc(I)cc1 is less than 2 µM?
Fulfilled

Is it true that IC50 reported for Cc1cccc(C)c1NC(=O)N/N=C/c1ccc(Cl)cc1 is less than 2 µM?
Fulfilled

Is it true that IC50 reported for Cc1cccc(/C=N/NC(=O)Nc2c(C)cccc2C)c1 is less than 2 µM?
Not fulfilled
